PARAMETER: melting point

What does the record list as melting point for CCc1c(Cl)nc(/N=C/N(C)C)nc1Cl ?
78 to 80 °C

What does the record list as melting point for C=CCc1c(Cl)nc(NC=O)nc1Cl ?
85 to 86 °C

What does the record list as melting point for CCCCc1c(-c2cc3ccccc3o2)nc(N)nc1-c1cc2ccccc2o1 ?
142 to 144 °C

What does the record list as melting point for CC(C)c1c(Cl)nc(/N=C/N(C)C)nc1Cl ?
77 to 78 °C

What does the record list as melting point for CCCCc1c(-c2cccnc2)nc(N)nc1-c1cccnc1 ?
173 to 174 °C

What does the record list as melting point for Nc1nc(Br)c(Cc2ccccc2)c(Br)n1 ?
154 to 155 °C

What does the record list as melting point for CCC(C)c1c(I)nc(N)nc1I (stereo not drawn) ?
173 to 174 °C

What does the record list as melting point for [2H]C([2H])([2H])C([2H])([2H])C([2H])([2H])C([2H])([2H])c1c(Cl)nc(NC=O)nc1Cl ?
83 to 84 °C

What does the record list as melting point for CC(C)c1c(Cl)nc(N)nc1Cl ?
175 to 176 °C

---

- Test system: production of nitric oxide (NO)
- EXPERIMENTAL_PROTOCOL: Production of nitric oxide (NO) in cultures of mouse peritoneal cells stimulated with IFN-γ plus LPS (Griess reagent)
- Type: cell-based, mice
- TEST_PARAMETERS: Table 3B; substance 50 μmol·l^−1; IFN-g plus LPS; 24 h
- Method: Under in vitro conditions, the effect of the pyrimidine compounds according to this invention was tested in terms of the production of nitric oxide (NO) and in terms of the production of prostaglandin E2 (PGE2) in cultures of the peritoneal cells of mice. NO is a product of the metabolism of L-arginine, quickly changes to […], which are then measured using the Griess reagent system. Under normal conditions, the production of NO is practically zero. It only occurs after some stimulation. […]
PARAMETER: Production of nitric oxide in % of the controls

What does the record list as Production of nitric oxide in % of the controls for CCCCc1c(-c2cccnc2)nc(N)nc1-c1cc2ccccc2s1 ?
64.91 ± 6.60 n = 4 % of the controls

What does the record list as Production of nitric oxide in % of the controls for CCCCc1c(-c2ccccc2)nc(N)nc1-c1ccccc1 ?
80.37 ± 1.36; n = 4 % of the controls

What does the record list as Production of nitric oxide in % of the controls for CCCCc1c(-c2ccc(F)cc2)nc(N)nc1-c1ccoc1 ?
66.44 ± 3.19; n = 6 % of the controls

What does the record list as Production of nitric oxide in % of the controls for CCCCc1c(-c2ccncc2)nc(N)nc1-c1cccs1 ?
63.95 ± 2.00; n = 4 % of the controls

What does the record list as Production of nitric oxide in % of the controls for CCCCc1c(-c2ccccc2)nc(N)nc1-c1cccc2ccccc12 ?
49.60 ± 9.26; n = 4 % of the controls

What does the record list as Production of nitric oxide in % of the controls for CCCCc1c(-c2ccoc2)nc(N)nc1-c1ccsc1 ?
63.79 ± 1.64; n = 6 % of the controls

What does the record list as Production of nitric oxide in % of the controls for CCCCc1c(-c2ccoc2)nc(N)nc1-c1cccc2ccccc12 ?
70.38 ± 4.95; n = 6 % of the controls

What does the record list as Production of nitric oxide in % of the controls for CCCCc1c(-c2cccnc2)nc(N)nc1-c1cc2ccccc2o1 ?
70.13 ± 10.10; n = 6 % of the controls

What does the record list as Production of nitric oxide in % of the controls for CCCCc1c(Cl)nc(NC2CC2)nc1Cl ?
78.33 ± 13.82; n = 6 % of the controls

What does the record list as Production of nitric oxide in % of the controls for CCCCc1c(-c2ccco2)nc(N)nc1-c1ccco1 ?
33.70 ± 2.71; n = 6 % of the controls

What does the record list as Production of nitric oxide in % of the controls for CCCCc1c(Cl)nc(N)nc1-c1ccc(OC)cc1 ?
15.96 ± 4.83; n = 4 % of the controls

What does the record list as Production of nitric oxide in % of the controls for CCCCc1c(Cl)nc(N)nc1-c1cc2ccccc2o1 ?
78.18 ± 9.03; n = 4 % of the controls

What does the record list as Production of nitric oxide in % of the controls for CCCCc1c(-c2ccncc2)nc(N)nc1-c1cccnc1 ?
47.55 ± 7.12; n = 6 % of the controls

What does the record list as Production of nitric oxide in % of the controls for CCCCc1c(-c2ccc(OC)cc2)nc(N)nc1-c1ccco1 ?
50.99 ± 2.60; n = 4 % of the controls

What does the record list as Production of nitric oxide in % of the controls for CCCCc1c(-c2ccc(OC)cc2)nc(N)nc1-c1ccc(OC)cc1 ?
86.27 ± 4.16; n = 4 % of the controls

What does the record list as Production of nitric oxide in % of the controls for CCCCc1c(Cl)nc(N)nc1-c1ccsc1 ?
37.43 ± 8.29; n = 6 % of the controls

What does the record list as Production of nitric oxide in % of the controls for CCCCc1c(-c2ccc(F)cc2)nc(N)nc1-c1cccnc1 ?
62.58 ± 2.32; n = 6 % of the controls

What does the record list as Production of nitric oxide in % of the controls for CCCCc1c(-c2ccccc2)nc(N)nc1-c1ccc(F)cc1 ?
71.24 ± 4.28; n = 4 % of the controls

What does the record list as Production of nitric oxide in % of the controls for CCCCc1c(-c2ccccc2)nc(N)nc1-c1ccoc1 ?
68.34 ± 4.63; n = 6 % of the controls

What does the record list as Production of nitric oxide in % of the controls for CCCCc1c(-c2ccsc2)nc(N)nc1-c1ccco1 ?
47.96 ± 4.90; n = 6 % of the controls

---

- Test system: peritoneal cells of mice
- EXPERIMENTAL_PROTOCOL: Cell viability of mouse peritoneal cells (WST-1 kit)
- Type: cell-based
- TEST_PARAMETERS: Table 3B, substance 50 μmol·l^−1, 24 h
Exercise: state measured Cell viabilities in % of the controls for each of the compounds provided.

What does the record list as Cell viabilities in % of the controls for CCCCc1c(Cl)nc(N)nc1-c1cccc2ccccc12 ?
114.07 ± 8.00; n = 8 % of the controls

What does the record list as Cell viabilities in % of the controls for CCCCc1c(-c2ccc(OC)cc2)nc(N)nc1-c1cccc2ccccc12 ?
93.40 ± 5.59; n = 12 % of the controls

What does the record list as Cell viabilities in % of the controls for CCCCc1c(-c2ccco2)nc(N)nc1-c1ccco1 ?
69.04 ± 4.47; n = 8 % of the controls

What does the record list as Cell viabilities in % of the controls for CCCCc1c(Cl)nc(N)nc1-c1ccc(OC)cc1 ?
86.35 ± 9.29; n = 8 % of the controls

What does the record list as Cell viabilities in % of the controls for CCCCc1c(-c2ccccc2)nc(N)nc1-c1ccccn1 ?
97.97 ± 5.33; n = 8 % of the controls

What does the record list as Cell viabilities in % of the controls for CCCCc1c(-c2ccc(F)cc2)nc(N)nc1-c1cccnc1 ?
104.50 ± 6.37; n = 8 % of the controls

What does the record list as Cell viabilities in % of the controls for CCCCc1c(-c2ccco2)nc(N)nc1-c1cccc2ccccc12 ?
93.61 ± 5.46; n = 4 % of the controls

What does the record list as Cell viabilities in % of the controls for CCCCc1c(Cl)nc(S)nc1Cl ?
99.14 ± 6.73; n = 8 % of the controls

What does the record list as Cell viabilities in % of the controls for CCCCc1c(-c2ccc(OC)cc2)nc(N)nc1-c1ccco1 ?
113.53 ± 4.93; n = 8 % of the controls

What does the record list as Cell viabilities in % of the controls for CCCCc1c(-c2ccccc2)nc(N)nc1-c1ccc(OC)cc1 ?
108.35 ± 5.66; n = 8 % of the controls

---

- Tested on: peritoneal cells of mice
- EXPERIMENTAL_PROTOCOL: Cell viability of mouse peritoneal cells (WST-1 kit)
- Assay type: cell-based
- TEST_PARAMETERS: Table 3A, substance 50 μmol·l^−1, 24 h
Exercise: state measured Cell viability in % of the controls for each of the molecules provided.

What does the record list as Cell viability in % of the controls for Cc1c(Cl)nc(N=CN(C)C)nc1Cl [Substance 13] ?
77.29 ± 3.69 % of the controls

What does the record list as Cell viability in % of the controls for Nc1nc(Cl)c(-c2ccccc2)c(Cl)n1 [Substance 31] ?
82.53 ± 8.73 % of the controls

What does the record list as Cell viability in % of the controls for CCCCc1c(Cl)ncnc1Cl [Substance 61] ?
73.73 ± 0.99 % of the controls

What does the record list as Cell viability in % of the controls for CCc1c(Cl)nc(NC=O)nc1Cl [Substance 49] ?
111.37 ± 10.44 % of the controls

What does the record list as Cell viability in % of the controls for Nc1nc(Cl)c(Cc2ccccc2)c(I)n1 [Substance 39] ?
67.81 ± 3.08 % of the controls

What does the record list as Cell viability in % of the controls for CCCCc1c(Cl)nc(N)nc1-c1ccccc1 [Substance 41] ?
108.24 ± 7.40 % of the controls

What does the record list as Cell viability in % of the controls for CCCCc1c(Cl)nc(C)nc1Cl [Substance 62] ?
80.93 ± 0.84 % of the controls

What does the record list as Cell viability in % of the controls for CCCCc1c(-c2ccccc2)nc(N)nc1-c1ccccc1 [Substance 45] ?
297.33 ± 23.17 % of the controls

What does the record list as Cell viability in % of the controls for O=CNc1nc(Cl)c(-c2ccccc2)c(Cl)n1 [Substance 56] ?
48.49 ± 4.44 % of the controls

What does the record list as Cell viability in % of the controls for CCC(C)c1c(Cl)nc(N)nc1Cl (stereo not shown) [Substance 30] ?
111.90 ± 9.63 % of the controls
